Recorded selectivity ratio for the following compounds
assay: Therapeutic index, ratio of IC50 for human H9 cells to EC50 for HIV1; type: cell-based; conditions: read-out: Ratio IC50/EC50

CC(=O)O[C@@H]1[C@@H]2[C@@H](OC(C)=O)[C@@]34O[C@@]2(C)COC(=O)c2cnccc2C(C)C(C)(O)C(=O)O[C@@H]([C@H](OC(C)=O)[C@H](OC(C)=O)[C@@]3(COC(=O)c2ccco2)[C@@H]1OC(C)=O)[C@]4(C)O (stereo not given in full) [HYPOGLAUNINE A] ... > 769
CC(=O)OC[C@]12[C@H](OC(C)=O)[C@H](OC(=O)c3cccnc3)[C@@H]3[C@@H](OC(=O)c4ccco4)[C@@]14O[C@@]3(C)COC(=O)c1cccnc1C(C)C(C)C(=O)O[C@@H]([C@H](OC(C)=O)[C@@H]2OC(C)=O)[C@]4(C)O (stereo not given in full) [HYPONINE E] ... 11.3
CC(=O)OC[C@]12[C@H](OC(C)=O)[C@H](OC(C)=O)[C@@H]3[C@@H](O)[C@@]14O[C@@]3(C)COC(=O)c1cccnc1C(C)C(C)C(=O)O[C@@H]([C@H](OC(C)=O)[C@@H]2OC(C)=O)[C@]4(C)O (stereo not given in full) [NEOEUONYMINE] ... > 113
COC(=O)C[C@@H]1C(=O)CC[C@H](C)C(=O)O[C@@H]2[C@@H]3[C@@H](OC(C)=O)[C@@]45O[C@@]3(C)COC(=O)c3cnccc3[C@@H](C)[C@@](C)(O)C(=O)O[C@@H]([C@H](OC(C)=O)[C@H](OC(C)=O)[C@@]4(COC1=O)[C@@H]2OC(C)=O)[C@]5(C)O ... > 1000
CC(=O)OC[C@]12[C@H](OC(C)=O)[C@H](OC(C)=O)[C@@H]3[C@@H](OC(C)=O)[C@@]14O[C@@]3(C)COC(=O)c1cnccc1C(C)C(C)(O)C(=O)O[C@@H]([C@H](OC(=O)c1ccco1)[C@@H]2OC(C)=O)[C@]4(C)O (stereo not given in full) [HYPOGLAUNINE B] ... > 1000

Per the records, this compound ( CC(=O)OC[C@]12[C@H](OC(C)=O)[C@H](OC(C)=O)[C@@H]3[C@@H](OC(=O)c4ccco4)[C@@]14O[C@@]3(C)COC(=O)c1cccnc1C(C)C(C)C(=O)O[C@@H]([C@H](OC(C)=O)[C@@H]2OC(C)=O)[C@]4(C)O (stereo not given in full) [HYPONINE A] ) has selectivity ratio equal to 27.7

Per the records, this compound ( CC(=O)OC[C@]12[C@H](OC(C)=O)C(=O)[C@@H]3[C@@H](OC(C)=O)[C@@]14O[C@@]3(C)COC(=O)c1cccnc1C(C)C(C)C(=O)O[C@@H]([C@H](OC(C)=O)[C@@H]2OC(C)=O)[C@]4(C)O (stereo not given in full) [EVONINE] ) has selectivity ratio equal to 42.1

* * *

Recorded selectivity ratio for the following compounds
experiment: Therapeutic index, ratio of IC50 for human H9 cells to EC50 for HIV1; type: cell-based; settings: read-out: Ratio IC50/EC50

// solved cases for selectivity ratio follow
CC(=O)O[C@@H]1[C@H](OC(C)=O)[C@@]2(COC(=O)c3ccco3)[C@H](OC(C)=O)C(=O)[C@@H]3[C@@H](OC(C)=O)[C@@]24O[C@@]3(C)COC(=O)c2cccnc2C(C)C(C)C(=O)O[C@@H]1[C@]4(C)O (stereo partly drawn) ... > 1000
CC(=O)OC[C@]12[C@H](OC(C)=O)[C@H](OC(C)=O)[C@@H]3[C@@H](OC(C)=O)[C@@]14O[C@@]3(C)COC(=O)c1cccnc1CCC(C)(O)C(=O)O[C@@H]([C@H](OC(=O)c1ccccc1)[C@@H]2OC(C)=O)[C@]4(C)O (stereo partly drawn) ... > 220
CC(=O)OC[C@]12[C@H](OC(C)=O)[C@H](OC(C)=O)[C@@H]3[C@@H](OC(=O)c4ccccc4)[C@@]14O[C@@]3(C)COC(=O)c1cccnc1C(C)C(C)C(=O)O[C@@H]([C@H](OC(C)=O)[C@@H]2OC(C)=O)[C@]4(C)O (stereo partly drawn) ... 63.4
COC(=O)C[C@@H]1C(=O)CCC(C)C(=O)O[C@@H]2[C@@H]3[C@@H](OC(C)=O)[C@@]45O[C@@]3(C)COC(=O)c3cccnc3C(C)C(C)C(=O)O[C@@H]([C@H](OC(C)=O)[C@H](OC(C)=O)[C@@]4(COC1=O)[C@@H]2OC(C)=O)[C@]5(C)O (stereo partly drawn) ... > 39.4
CC(=O)OC[C@]12[C@H](OC(C)=O)[C@H](OC(C)=O)[C@@H]3[C@@H](OC(C)=O)[C@@]14O[C@@]3(C)COC(=O)c1cccnc1C(C)C(C)C(=O)O[C@@H]([C@H](OC(C)=O)[C@@H]2OC(C)=O)[C@]4(C)O (stereo partly drawn) ... 113
CC(=O)OC[C@]12[C@H](OC(C)=O)[C@H](OC(C)=O)[C@@H]3[C@@H](OC(C)=O)[C@@]14O[C@@]3(C)COC(=O)c1cccnc1CCC(C)(O)C(=O)O[C@@H]([C@H](OC(=O)c1ccco1)[C@@H]2OC(C)=O)[C@]4(C)O (stereo partly drawn) ... > 1000
CC(=O)OC[C@]12[C@H](OC(C)=O)[C@H](OC(C)=O)[C@@H]3[C@@H](OC(C)=O)[C@@]14O[C@@]3(C)COC(=O)c1cccnc1C(C)C(C)C(=O)O[C@@H]([C@H](OC(=O)c1ccccc1)[C@@H]2OC(C)=O)[C@@]4(C)O (stereo partly drawn) ... > 208

Field: next compound
Per the records, this compound ( CC(=O)OC[C@]12[C@H](OC(C)=O)[C@H](OC(C)=O)[C@@H]3[C@@H](OC(C)=O)[C@@]14O[C@@]3(C)COC(=O)c1cccnc1C(C)C(C)C(=O)O[C@@H]([C@H](OC(=O)c1ccco1)[C@@H]2OC(C)=O)[C@]4(C)O (stereo partly drawn) ) has selectivity ratio equal to > 2.84
